Assay metric: melting point

Consider the reported melting point for these molecules:
{"columns": ["Molecule", "melting point"],
 "data": [
  ["Cc1sc2c(Br)c3ccccc3c(-c3cc(C(C)C)c(O)c(C(C)C)c3)c2c1C", "212 to 216 °C"],
  ["N#Cc1ccccc1C=CCN1CCc2nc(N)sc2CC1", "140 to 144 °C"],
  ["CC1CC(=O)NN=C1c1ccc(-n2cncn2)nc1 (configuration not stated)", "256 to 257 °C"]
]}

Lookup: Read the entry CC(C)CN1C(=O)c2cnc(-c3ccccc3)nc2N(C(=O)CN2CCCCC2)c2ccccc21 and write its reported melting point.
Found: 193 to 194 °C

Lookup: Name the recorded melting point of the molecule listed here: Oc1cc(-c2ccccc2)nc2nn(-c3ccccc3)cc12
Found: 280 to 281 °C

Lookup: Quickly give me recorded melting point for COc1cc(NCCCCCCN2CCN(C(=NC#N)SC)CC2)c2nccc(C)c2c1
Found: 97 to 99 °C

Lookup: Find the measured melting point of N#Cc1cc(N)cc([N+](=O)[O-])c1 and report it.
Found: 168 to 170 °C

---

melting point values, listed per item

Study these solved cases before continuing.
{"columns": ["Compound", "melting point"],
 "data": [
  ["Cn1ncc(SCc2ccccc2)c(Br)c1=O", "118 to 121 °C"],
  ["COc1ccc(-c2ccc3nc(N)c4ncn(CC(C)C)c4c3c2)c(OC)c1", "223 to 227 °C"]
]}

Shift focus to the following entry.
Lookup: Let me know recorded melting point for CS(=O)c1ncc2ccc(=O)n(C3CCCC3)c2n1 (stereo not drawn) , thanks.
Found: 170 to 173 °C

---

Entries and their melting point values follow.

// below: answered compounds
{"columns": ["Compound", "Measured result"],
 "data": [
  ["CC(C)c1cc(C=C2NC(=S)NC2=O)cc(C(C)C)c1O", "225 to 230 °C"],
  ["CSCCSC1=C(O)CC(C)(C)CC1=O", "57 to 59 °C"],
  ["C=CCc1c(OCCCOc2ccc3c(c2)OC(C(=O)O)CC3)ccc(C(C)=O)c1OC (centres undefined)", "85.5 °C"],
  ["CNC(c1ccc(OC)cc1)c1csc(S(N)(=O)=O)c1 (centres undefined)", "155 to 156 °C"],
  ["CCc1[nH]n(C2CCCC2)c2nc(-c3ccc4nccn4c3)nc(=O)c1-2", "> 300 °C"]
]}

Lookup: Indicate its recorded melting point; the compound in question is OCc1conc1-c1ccc(C(F)(F)F)cc1
Found: 70 to 71 °C

Lookup: Give melting point for the following compound: CSc1cn(C)cc(-c2cccc(C(F)(F)F)c2)c1=O
Found: 121 to 122 °C

Lookup: Give the reported melting point for this compound. Cc1cc(-c2ncn3c(C(F)(F)F)cc(-c4ccc(C(F)(F)F)cc4)nc23)ccn1
Found: 257 °C

Lookup: Hello, please tell me recorded melting point for this one: CC(=O)Oc1ccc2c(c1)Cc1cc(OC(C)=O)ccc1-2
Found: 168 °C

Lookup: Give the reported melting point for this compound. COc1cc(OC)cc(Oc2ncccc2OCCCc2ccncc2O)c1
Found: 172 to 178 °C

Lookup: Using the record for CCCCCCNC(=O)n1nc(Oc2c(Cl)cc(C(F)(F)F)cc2Cl)c(Cl)c1C , state its measured melting point.
Found: 86 to 88 °C

Lookup: Input Cc1[nH]c(=O)c2cc3nc(-c4ccncc4)[nH]c3cc2c1C , output reported melting point.
Found: > 300 °C

Lookup: Please report the measured melting point for COC(c1ccccc1)c1nc2c(N)nc3ccccc3c2n1CC(C)C (centres undefined)
Found: 183 to 184 °C

Lookup: Please indicate melting point recorded for COC(=O)c1ccccc1-c1ccc(OC)cn1
Found: 130 to 132 °C

Lookup: Note down melting point recorded for Cc1ccc2c(c1)C(C(F)(F)F)(C(F)(F)F)c1cc(C)ccc1O2
Found: 136 to 137 °C

Lookup: Supply recorded melting point for CN(C)CCOc1cccc(CC(Nc2cc(-c3ccc(OCc4ccccc4)cc3)ncn2)C(=O)O)c1 (centres undefined) here.
Found: 143 °C

Lookup: Kindly indicate its recorded melting point. Item: CC(CCCn1c(C)nc2c(N)nc3ccccc3c21)=NOCc1ccccc1
Found: 146 to 148 °C

Lookup: Retrieve melting point measured for CN1N=C(c2ccc3c(c2)CCC(=O)N3)C2CC2C1=O (centres undefined) and print it.
Found: 255 to 259 °C

Lookup: Note melting point for the compound shown: Cc1cc(-c2nc3ccccc3[nH]2)n[nH]1
Found: 322 to 324 °C

---

Assay metric: melting point

Below, each entry is followed by its recorded melting point result.
{"columns": ["Substance smiles", "melting point"],
 "data": [
  ["CCN(CC)c1cc(-c2ccccc2)nc2nn(-c3ccccc3)cc12", "148 to 149 °C"],
  ["COC1=Cc2c(c(=O)[nH]c3ccc(OC)cc23)[C@@H](C)C1", "153 to 157 °C"],
  ["CCOc1cc(C(F)(F)F)nc(N)n1", "114 to 116 °C"],
  ["Nc1ccsc1C(=O)NC/C=C\\COc1cc(CN2CCCCC2)ccn1", "138 to 140 °C"]
]}

Lookup: // Input: N#CCOc1ccc(-c2cc(O)c(SCCc3ccccc3)c(=O)o2)cc1 . Output its melting point only.
Found: 157 to 159 °C

Lookup: Retrieve melting point measured for CCOC(=O)N1CCC2(CC1)N=C(N)c1c(F)ccc(Cl)c1N2 and print it.
Found: 182 to 184 °C

---

Reported values of melting point for individual entries

Some compounds with recorded melting point:
{"columns": ["Compound", "melting point"],
 "data": [
  ["N[C@@H](CC(C(=O)O)=C1CCC1)C(=O)O", "212 to 214 °C"],
  ["S=C(Cl)c1cc(C(Cl)(Cl)Cl)c(Cl)cc1Cl", "79 to 81 °C"],
  ["CS(=O)(=O)c1ccc(-c2nc(-c3ccccc3)nn2-c2ccc(Cl)cc2)cc1", "170 °C"],
  ["COc1cc(Nc2c(C#N)cnc3c(/C=C/CCN4CCOCC4)cccc23)c(Cl)cc1Cl", "176 to 179 °C"],
  ["CNCCc1cc2c(cc1CC(=O)c1ccc(OC)c(OC)c1C(=O)O)OCO2", "176 to 179 °C"]
]}

Let us move to another entry and its melting point.
Lookup: Give reported melting point value for Clc1ccccc1-c1nc2cc(Cn3ccnc3)ccc2[nH]1
Found: 115 °C

---

Assay metric: melting point

Known melting point results, listed for orientation:
{"columns": ["Compound", "melting point"],
 "data": [
  ["CC(C)CC(Cn1cc(Sc2ccccc2)c2ccccc21)N(O)C(N)=O (configuration not stated)", "57 °C"],
  ["CC(=O)Oc1cc(Oc2ccccc2)c(OC(C)=O)c2ccccc12", "137 to 138 °C"],
  ["CC(=O)OCC1(C)SC2C(NC(=O)Cc3ccccc3)C(=O)N2C1C(=O)OCC(Cl)(Cl)Cl (configuration not stated)", "116 to 118 °C"]
]}

Lookup: // Input: COc1cccc2c(=O)c(-c3cccc(C(F)(F)F)c3Cl)nn(Cc3ccc(F)cc3F)c12 . Output its melting point only.
Found: 141 to 142 °C

Lookup: Annotate the compound COc1ccc(CN(CCCNc2nccc(=O)[nH]2)c2ccccn2)cc1 with its measured melting point.
Found: 63 to 80 °C

Lookup: Look up melting point of Cc1ccc(S(=O)(=O)OC[C@H]2COc3ccc(Cl)cc3O2)cc1 and report it.
Found: 90 to 91 °C

Lookup: Respond only with melting point recorded for FC(F)(F)c1nc(Cl)c2ccccc2n1
Found: 62 to 63.5 °C

Lookup: Respond only with melting point recorded for Cc1c(CC(=O)O)c2cc(OCc3csc(-c4ccccc4)n3)ccc2n1Cc1csc(-c2ccc(Cl)cc2)n1
Found: 178 to 180 °C

Lookup: Identify measured melting point corresponding to O=[N+]([O-])c1cc(CBr)cc([N+](=O)[O-])c1
Found: 93 to 94 °C

Lookup: Tell me melting point reported for Cc1cc(-n2ccnc2)c2cccc(OCc3c(Cl)ccc(S(=O)(=O)N4CCC[C@H]4C(=O)NCCCN(C)C(=O)OC(C)(C)C)c3Cl)c2n1
Found: 75 °C

Lookup: Give the reported value of melting point for this record: Cc1cc2ncc(-c3cccc(-c4ccccc4C#N)c3)n2cn1
Found: 119 °C

---

Assay metric: melting point

Use these answered entries as a reference point.
{"columns": ["Compound", "melting point"],
 "data": [
  ["COc1ccc(CNC(=O)c2cc3c(=O)n(CCOc4ccc(F)cc4)c(=O)n(C)c3s2)cc1", "170 to 171 °C"],
  ["Clc1cc(Cl)c2c(c1)CCC(c1ccccc1)O2 (stereo unspecified)", "74 to 76 °C"],
  ["CCOC(=O)c1cc(=O)c2[nH]ncc2[nH]1", "287 to 292 °C"],
  ["C#CCSC1NN=C(c2ccncc2)N1c1ccccc1 (stereo unspecified)", "151 to 152 °C"],
  ["Cn1cc(-c2ccccc2)c(=O)c(-c2cccs2)c1", "147 to 148 °C"]
]}

# next compound below
Lookup: State its melting point: O=C(Nc1ccc(C(=O)N2Cc3ccccc3Cc3ccccc32)cc1)c1ccccc1OC(F)(F)F
Found: 232 to 235 °C
